Measured ΔTm values are reported for all entries that follow.
# Species: Homo sapiens
# assay-text: Binding affinity to human telomeric DNA sequence assessed as stabilization of G-quadruplex at 1 uM by thermal denaturation
Report only the number, with the unit °C understood.

>  <compound-structure-string>
C[C@H](N)C(=O)NCCNC(=O)c1ccc2c(c1)C(=O)c1ccc(C(=O)NCCNC(=O)[C@H](C)N)cc1C2=O

>  <ΔTm, °C>
0.4

$$$$

The reported ΔTm of the compound "N[C@@H](Cc1ccccc1)C(=O)NCCNC(=O)c1ccc2c(c1)C(=O)c1ccc(C(=O)NCCNC(=O)[C@@H](N)Cc3ccccc3)cc1C2=O" was 0.2

The reported ΔTm of the compound "N[C@@H](Cc1ccccc1)C(=O)NCCNC(=O)c1ccc2c(c1)C(=O)c1cc(C(=O)NCCNC(=O)[C@@H](N)Cc3ccccc3)ccc1C2=O" was 0.1

The reported ΔTm of the compound "N[C@@H](Cc1ccccc1)C(=O)NCCC(=O)Nc1ccc2c(c1)C(=O)c1ccc(NC(=O)CCNC(=O)[C@@H](N)Cc3ccccc3)cc1C2=O" was 0.5

---

# study-system: Telomerase reverse transcriptase (Homo sapiens, UniProt O14746)
# Sequence (O14746 whole entry): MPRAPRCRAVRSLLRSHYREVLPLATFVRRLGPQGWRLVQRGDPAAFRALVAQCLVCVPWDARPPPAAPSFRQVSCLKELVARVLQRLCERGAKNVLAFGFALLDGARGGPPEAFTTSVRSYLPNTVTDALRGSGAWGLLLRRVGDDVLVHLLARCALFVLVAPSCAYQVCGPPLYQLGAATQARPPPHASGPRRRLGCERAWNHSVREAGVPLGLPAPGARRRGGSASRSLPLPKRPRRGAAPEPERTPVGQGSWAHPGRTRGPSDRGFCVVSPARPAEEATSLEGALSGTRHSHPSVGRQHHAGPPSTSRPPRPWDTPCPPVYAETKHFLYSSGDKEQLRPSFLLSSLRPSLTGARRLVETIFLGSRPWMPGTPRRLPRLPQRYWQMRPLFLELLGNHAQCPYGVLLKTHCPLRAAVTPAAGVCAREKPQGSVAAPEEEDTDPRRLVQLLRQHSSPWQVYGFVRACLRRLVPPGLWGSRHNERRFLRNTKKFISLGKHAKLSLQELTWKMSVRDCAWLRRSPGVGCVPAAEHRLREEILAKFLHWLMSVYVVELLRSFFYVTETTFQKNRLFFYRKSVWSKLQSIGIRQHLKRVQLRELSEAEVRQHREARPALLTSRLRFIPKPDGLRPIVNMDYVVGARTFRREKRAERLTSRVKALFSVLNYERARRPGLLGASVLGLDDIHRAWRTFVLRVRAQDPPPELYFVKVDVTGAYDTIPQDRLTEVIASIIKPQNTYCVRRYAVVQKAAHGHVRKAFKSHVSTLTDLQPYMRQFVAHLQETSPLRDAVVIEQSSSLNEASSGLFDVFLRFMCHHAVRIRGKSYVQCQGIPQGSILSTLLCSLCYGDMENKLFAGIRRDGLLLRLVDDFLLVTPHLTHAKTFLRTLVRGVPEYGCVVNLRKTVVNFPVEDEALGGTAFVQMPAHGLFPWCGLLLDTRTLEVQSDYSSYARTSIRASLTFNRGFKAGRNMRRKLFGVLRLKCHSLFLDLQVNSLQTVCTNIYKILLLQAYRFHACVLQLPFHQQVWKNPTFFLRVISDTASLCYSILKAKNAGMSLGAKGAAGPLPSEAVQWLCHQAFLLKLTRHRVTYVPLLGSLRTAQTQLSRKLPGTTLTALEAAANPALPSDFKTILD
# assay-text: Inhibition of telomerase in human JR8 cells by TRAP assay
parameter-measured: EC50

>  <compound-structure-string>
CC[C@H](C)[C@H](N)C(=O)NCCNC(=O)c1ccc2c(c1)C(=O)c1cc(C(=O)NCCNC(=O)[C@@H](N)[C@@H](C)CC)ccc1C2=O

>  <observed-measurement>
> 40 µM

$$$$

The reported EC50 of the compound "N[C@@H](Cc1ccccc1)C(=O)NCCNC(=O)c1ccc2c(c1)C(=O)c1cc(C(=O)NCCNC(=O)[C@@H](N)Cc3ccccc3)ccc1C2=O" was > 40 µM

The reported EC50 of the compound "CC(C)C[C@H](N)C(=O)NCC(=O)Nc1ccc2c(c1)C(=O)c1ccc(NC(=O)CNC(=O)[C@@H](N)CC(C)C)cc1C2=O" was > 40 µM

---

Measured ΔTm values are reported for all entries that follow.
# Species on record: Homo sapiens
# assay-text: Binding affinity to human telomeric DNA sequence assessed as stabilization of G-quadruplex at 1 uM by thermal denaturation
Report only the number, with the unit °C understood.

// below: answered compounds
>  <compound-structure-string>
C[C@H](N)C(=O)NCCC(=O)Nc1ccc2c(c1)C(=O)c1cc(NC(=O)CCNC(=O)[C@H](C)N)ccc1C2=O

>  <observed-measurement>
0.3

$$$$
>  <compound-structure-string>
N[C@@H](Cc1ccccc1)C(=O)NCC(=O)Nc1ccc2c(c1)C(=O)c1ccc(NC(=O)CNC(=O)[C@@H](N)Cc3ccccc3)cc1C2=O

>  <observed-measurement>
0.5

$$$$
>  <compound-structure-string>
NCCCC[C@H](N)C(=O)NCC(=O)Nc1ccc2c(c1)C(=O)c1ccc(NC(=O)CNC(=O)[C@@H](N)CCCCN)cc1C2=O

>  <observed-measurement>
12

$$$$
>  <compound-structure-string>
NCCCC[C@H](N)C(=O)NCCC(=O)Nc1ccc2c(c1)C(=O)c1cc(NC(=O)CCNC(=O)[C@@H](N)CCCCN)ccc1C2=O

>  <observed-measurement>
3

$$$$

The reported ΔTm of the compound "CC[C@H](C)[C@H](N)C(=O)NCC(=O)Nc1ccc2c(c1)C(=O)c1ccc(NC(=O)CNC(=O)[C@@H](N)[C@@H](C)CC)cc1C2=O" was 0.8

The reported ΔTm of the compound "CC(C)C[C@H](N)C(=O)NCCNC(=O)c1ccc2c(c1)C(=O)c1ccc(C(=O)NCCNC(=O)[C@@H](N)CC(C)C)cc1C2=O" was 0.2

The reported ΔTm of the compound "C[C@H](N)C(=O)NCCNC(=O)c1ccc2c(c1)C(=O)c1cc(C(=O)NCCNC(=O)[C@H](C)N)ccc1C2=O" was 0.5

The reported ΔTm of the compound "NCCC(=O)Nc1ccc2c(c1)C(=O)c1cc(NC(=O)CCN)ccc1C2=O" was 11.3

The reported ΔTm of the compound "N=C(N)NCCC[C@H](N)C(=O)NCCNC(=O)c1ccc2c(c1)C(=O)c1cc(C(=O)NCCNC(=O)[C@@H](N)CCCNC(=N)N)ccc1C2=O" was 5.1

The reported ΔTm of the compound "N=C(N)NCCC[C@H](N)C(=O)NCC(=O)Nc1ccc2c(c1)C(=O)c1ccc(NC(=O)CNC(=O)[C@@H](N)CCCNC(=N)N)cc1C2=O" was 9.8

The reported ΔTm of the compound "N[C@@H](Cc1ccccc1)C(=O)NCCC(=O)Nc1ccc2c(c1)C(=O)c1cc(NC(=O)CCNC(=O)[C@@H](N)Cc3ccccc3)ccc1C2=O" was 0.3

The reported ΔTm of the compound "NCC(=O)NCCNC(=O)c1ccc2c(c1)C(=O)c1cc(C(=O)NCCNC(=O)CN)ccc1C2=O" was 0.4

The reported ΔTm of the compound "O=C(CNC(=O)[C@@H]1CCCN1)Nc1ccc2c(c1)C(=O)c1ccc(NC(=O)CNC(=O)[C@@H]3CCCN3)cc1C2=O" was 6.1

The reported ΔTm of the compound "CC(C)[C@H](N)C(=O)NCC(=O)Nc1ccc2c(c1)C(=O)c1ccc(NC(=O)CNC(=O)[C@@H](N)C(C)C)cc1C2=O" was 0.5

---

# study-system: DNA polymerase I, thermostable (Thermus aquaticus)
# Sequence (P19821 whole entry): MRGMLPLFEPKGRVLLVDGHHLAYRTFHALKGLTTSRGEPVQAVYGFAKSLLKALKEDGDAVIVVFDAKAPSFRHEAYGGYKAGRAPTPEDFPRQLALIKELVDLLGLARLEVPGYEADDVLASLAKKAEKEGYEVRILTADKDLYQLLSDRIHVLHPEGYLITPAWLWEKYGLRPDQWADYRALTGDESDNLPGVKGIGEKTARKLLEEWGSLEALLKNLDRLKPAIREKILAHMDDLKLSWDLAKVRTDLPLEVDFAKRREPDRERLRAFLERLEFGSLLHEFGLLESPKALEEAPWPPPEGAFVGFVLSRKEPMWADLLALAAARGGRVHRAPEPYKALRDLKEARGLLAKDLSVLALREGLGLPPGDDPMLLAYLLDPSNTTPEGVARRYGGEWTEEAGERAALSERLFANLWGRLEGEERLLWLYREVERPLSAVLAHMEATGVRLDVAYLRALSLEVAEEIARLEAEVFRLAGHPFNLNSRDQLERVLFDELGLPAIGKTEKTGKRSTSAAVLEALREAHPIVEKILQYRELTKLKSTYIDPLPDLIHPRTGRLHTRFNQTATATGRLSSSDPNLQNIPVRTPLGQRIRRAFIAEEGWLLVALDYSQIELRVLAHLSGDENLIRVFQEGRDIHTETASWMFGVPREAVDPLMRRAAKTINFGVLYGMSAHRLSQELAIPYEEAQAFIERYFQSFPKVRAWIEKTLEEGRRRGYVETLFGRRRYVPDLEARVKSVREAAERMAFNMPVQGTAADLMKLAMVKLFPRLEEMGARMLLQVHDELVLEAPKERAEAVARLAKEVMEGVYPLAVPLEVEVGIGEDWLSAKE
# assay-text: Inhibition of Taq polymerase
parameter-measured: EC50

>  <compound-structure-string>
NC(N)=NCCC[C@H](N)C(=O)NCCC(=O)Nc1ccc2c(c1)C(=O)c1ccc(NC(=O)CCNC(=O)[C@@H](N)CCCN=C(N)N)cc1C2=O

>  <EC50>
10 µM

$$$$

The reported EC50 of the molecule "O=C(CNC(=O)[C@@H]1CCCN1)Nc1ccc2c(c1)C(=O)c1ccc(NC(=O)CNC(=O)[C@@H]3CCCN3)cc1C2=O" was > 40 µM

The reported EC50 of the molecule "N[C@@H](Cc1ccccc1)C(=O)NCCNC(=O)c1ccc2c(c1)C(=O)c1ccc(C(=O)NCCNC(=O)[C@@H](N)Cc3ccccc3)cc1C2=O" was > 40 µM

---

Measured pEC50 values are reported for all entries that follow.
# study-system: Telomerase reverse transcriptase (Homo sapiens)
# assay-text: Inhibition of telomerase in human JR8 cells by TRAP assay
pEC50: −log10 of the molar value.

// below: answered molecules
>  <compound-structure-string>
N[C@@H](Cc1ccccc1)C(=O)NCCC(=O)Nc1ccc2c(c1)C(=O)c1cc(NC(=O)CCNC(=O)[C@@H](N)Cc3ccccc3)ccc1C2=O

>  <study-system>
Telomerase reverse transcriptase (Homo sapiens)

>  <pEC50>
< 4.40

$$$$
>  <compound-structure-string>
CC(C)[C@H](N)C(=O)NCCC(=O)Nc1ccc2c(c1)C(=O)c1ccc(NC(=O)CCNC(=O)[C@@H](N)C(C)C)cc1C2=O

>  <study-system>
Telomerase reverse transcriptase (Homo sapiens)

>  <pEC50>
< 4.40

$$$$

The reported pEC50 of the molecule "NCC(=O)NCCNC(=O)c1ccc2c(c1)C(=O)c1cc(C(=O)NCCNC(=O)CN)ccc1C2=O" was < 4.40

The reported pEC50 of the molecule "NCCCC[C@H](N)C(=O)NCCC(=O)Nc1ccc2c(c1)C(=O)c1ccc(NC(=O)CCNC(=O)[C@@H](N)CCCCN)cc1C2=O" was 6.10

The reported pEC50 of the molecule "N[C@@H](CO)C(=O)NCCNC(=O)c1ccc2c(c1)C(=O)c1cc(C(=O)NCCNC(=O)[C@@H](N)CO)ccc1C2=O" was < 4.40

The reported pEC50 of the molecule "NCCNC(=O)c1ccc2c(c1)C(=O)c1ccc(C(=O)NCCN)cc1C2=O" was 5.30

The reported pEC50 of the molecule "C[C@H](N)C(=O)NCCNC(=O)c1ccc2c(c1)C(=O)c1cc(C(=O)NCCNC(=O)[C@H](C)N)ccc1C2=O" was < 4.40

---

# study-system: Telomerase reverse transcriptase (Homo sapiens, UniProt O14746)
# assay-text: Inhibition of telomerase in human JR8 cells by TRAP assay
pEC50: −log10 of the molar value.
Measured pEC50 values are reported for all entries that follow.

>  <compound-structure-string>
CC(C)C[C@H](N)C(=O)NCCNC(=O)c1ccc2c(c1)C(=O)c1ccc(C(=O)NCCNC(=O)[C@@H](N)CC(C)C)cc1C2=O

>  <parameter-measured>
pEC50

>  <observed-measurement>
< 4.40

$$$$
>  <compound-structure-string>
N[C@@H](CO)C(=O)NCCNC(=O)c1ccc2c(c1)C(=O)c1ccc(C(=O)NCCNC(=O)[C@@H](N)CO)cc1C2=O

>  <parameter-measured>
pEC50

>  <observed-measurement>
< 4.40

$$$$
>  <compound-structure-string>
CC[C@H](C)[C@H](N)C(=O)NCCC(=O)Nc1ccc2c(c1)C(=O)c1cc(NC(=O)CCNC(=O)[C@@H](N)[C@@H](C)CC)ccc1C2=O

>  <parameter-measured>
pEC50

>  <observed-measurement>
< 4.40

$$$$
>  <compound-structure-string>
CC(C)C[C@H](N)C(=O)NCCNC(=O)c1ccc2c(c1)C(=O)c1cc(C(=O)NCCNC(=O)[C@@H](N)CC(C)C)ccc1C2=O

>  <parameter-measured>
pEC50

>  <observed-measurement>
< 4.40

$$$$
>  <compound-structure-string>
NCC(=O)NCCNC(=O)c1ccc2c(c1)C(=O)c1ccc(C(=O)NCCNC(=O)CN)cc1C2=O

>  <parameter-measured>
pEC50

>  <observed-measurement>
< 4.40

$$$$

The reported pEC50 of the molecule "CC[C@H](C)[C@H](N)C(=O)NCC(=O)Nc1ccc2c(c1)C(=O)c1ccc(NC(=O)CNC(=O)[C@@H](N)[C@@H](C)CC)cc1C2=O" was 4.60

The reported pEC50 of the molecule "N[C@@H](Cc1ccccc1)C(=O)NCC(=O)Nc1ccc2c(c1)C(=O)c1ccc(NC(=O)CNC(=O)[C@@H](N)Cc3ccccc3)cc1C2=O" was < 4.40

The reported pEC50 of the molecule "C[C@H](N)C(=O)NCCC(=O)Nc1ccc2c(c1)C(=O)c1ccc(NC(=O)CCNC(=O)[C@H](C)N)cc1C2=O" was < 4.40

The reported pEC50 of the molecule "O=C(CNC(=O)[C@@H]1CCCN1)Nc1ccc2c(c1)C(=O)c1ccc(NC(=O)CNC(=O)[C@@H]3CCCN3)cc1C2=O" was 5.00

The reported pEC50 of the molecule "NC(N)=NCCC[C@H](N)C(=O)NCC(=O)Nc1ccc2c(c1)C(=O)c1ccc(NC(=O)CNC(=O)[C@@H](N)CCCN=C(N)N)cc1C2=O" was 6.10

The reported pEC50 of the molecule "NCCNC(=O)c1ccc2c(c1)C(=O)c1cc(C(=O)NCCN)ccc1C2=O" was 4.82
